TEST TARGET: His‐ΔSHP2 (Homo sapiens, UniProt Q06124)
Sequence (Q06124 205-593): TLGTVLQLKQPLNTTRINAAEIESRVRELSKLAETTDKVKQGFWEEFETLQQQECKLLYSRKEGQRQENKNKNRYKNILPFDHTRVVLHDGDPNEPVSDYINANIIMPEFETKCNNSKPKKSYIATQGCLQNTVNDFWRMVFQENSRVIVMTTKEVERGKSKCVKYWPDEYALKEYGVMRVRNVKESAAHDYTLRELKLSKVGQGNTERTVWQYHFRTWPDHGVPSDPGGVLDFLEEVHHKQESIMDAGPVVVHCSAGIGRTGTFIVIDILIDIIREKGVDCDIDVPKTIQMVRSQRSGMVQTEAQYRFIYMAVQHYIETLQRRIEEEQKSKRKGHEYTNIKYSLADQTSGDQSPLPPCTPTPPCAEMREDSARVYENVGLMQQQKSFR
MEASURED ENDPOINT: pKd
Please note pKd is a logarithmic value: minus log10 of concentration in mol/L. Answer with that number alone.

Exercise: Dear colleague, please send me the reported pKd for CCCCCCCCCCCC1=C(O)C(=O)C=C(O)C1=O when you can.
Key: 6.66

---

System: NCI-H2122 cells
ASSAY NAME: Cell viability assay (CCK-8)
Assay type: cell-based
CONDITION NOTES: Homo sapiens, NCI-H2122, 48 h; read-out: IC50 at 48 h
MEASURED ENDPOINT: pIC50
Please note pIC50 is a logarithmic value: minus log10 of concentration in mol/L. Answer with that number alone.

Exercise: Dear colleague, please send me the reported pIC50 for CCCCCCCCCCCC1=C(O)C(=O)C=C(O)C1=O [Embelin] when you can.
Key: 5.39

---

TEST TARGET: PTP1B (Homo sapiens, UniProt P18031)
Construct: His; made in house; host or cells: E. coli
Sequence (P18031 whole entry): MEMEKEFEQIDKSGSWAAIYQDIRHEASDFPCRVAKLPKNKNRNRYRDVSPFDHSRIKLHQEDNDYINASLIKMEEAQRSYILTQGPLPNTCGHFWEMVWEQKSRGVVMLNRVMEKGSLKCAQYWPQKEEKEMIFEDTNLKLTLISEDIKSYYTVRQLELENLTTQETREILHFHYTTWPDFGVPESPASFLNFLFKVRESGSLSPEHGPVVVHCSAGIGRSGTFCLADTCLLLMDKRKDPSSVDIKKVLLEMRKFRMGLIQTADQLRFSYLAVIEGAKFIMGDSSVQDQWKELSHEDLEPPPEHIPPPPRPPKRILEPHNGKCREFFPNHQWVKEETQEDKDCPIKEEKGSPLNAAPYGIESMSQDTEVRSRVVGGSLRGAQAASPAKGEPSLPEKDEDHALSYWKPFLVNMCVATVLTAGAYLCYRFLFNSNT
ASSAY NAME: PTPs activity assay (DiFMUP)
Type: biochemical
CONDITION NOTES: read-out: IC50 of PTPs PTP1B
Protocol: Catalytic activity screening methods for PTPs using candidate compounds were performed as previously described.^[ [77] ^] […] The fluorescence intensity was then measured using Multimode Plate Reader (λa = 358 nm, λe = 455 nm, PerkinElmer, USA).
Examples of compounds with documented IC50 follow.
Could you give me the number in µM? Just the number is fine.

CC1=NN(c2ccc(C)c(C)c2)C(=O)/C1=N\Nc1cccc(-c2cccc(C(=O)O)c2)c1O [S2229, Eltrombopag Olamine] = 145

Exercise: Dear colleague, please send me the reported IC50 for CC1(C)CCC(CN2CCN(c3ccc(C(=O)NS(=O)(=O)c4ccc(NCC5CCOCC5)c([N+](=O)[O-])c4)c(Oc4cnc5[nH]ccc5c4)c3)CC2)=C(c2ccc(Cl)cc2)C1 [S8048, Venetoclax] when you can.
Key: 16.6

Exercise: Dear colleague, please send me the reported IC50 for Cc1cc2c(C(C)C)c(O)c(O)c(C=O)c2c(O)c1-c1c(C)cc2c(C(C)C)c(O)c(O)c(C=O)c2c1O [S2812, AT101] when you can.
Key: 77.6

Exercise: Dear colleague, please send me the reported IC50 for O=C1Nc2ccc(I)cc2/C1=C/c1cc(Br)c(O)c(Br)c1 [S2872, GW5074] when you can.
Key: 110

---

Test system: SW620 cells
ASSAY NAME: Cell viability assay (CCK-8)
Format: cell-based
CONDITION NOTES: Homo sapiens, SW-620; SW620, 48 h; read-out: IC50 at 48 h
MEASURED ENDPOINT: pIC50
Please note pIC50 is a logarithmic value: minus log10 of concentration in mol/L. Answer with that number alone.

Exercise: Dear colleague, please send me the reported pIC50 for CCCCCCCCCCCC1=C(O)C(=O)C=C(O)C1=O [Embelin] when you can.
Key: 5.30

---

Test system: NCI-H838 cells
ASSAY NAME: Cell viability assay (CCK-8)
Type: cell-based
CONDITION NOTES: Homo sapiens; NCI-H838, RAS-wild type, 24 h; read-out: IC50 at 24 h
MEASURED ENDPOINT: IC50 (µM)
Could you give me the number in µM? Just the number is fine.

Exercise: Dear colleague, please send me the reported IC50 for CCCCCCCCCCCC1=C(O)C(=O)C=C(O)C1=O when you can.
Key: 39.8

---

System: SW1417 cells
ASSAY NAME: Cell viability assay (CCK-8)
Format: cell-based
CONDITION NOTES: Homo sapiens, SW1417, 48 h; read-out: IC50 at 48 h
MEASURED ENDPOINT: IC50 (µM)
Could you give me the number in µM? Just the number is fine.

Exercise: Dear colleague, please send me the reported IC50 for CCCCCCCCCCCC1=C(O)C(=O)C=C(O)C1=O when you can.
Key: 14.9

---

Examples of compounds with documented pIC50 follow.
TEST TARGET: ΔSHP1 (Homo sapiens)
Sequence (P29350 202-595, stated change not applied): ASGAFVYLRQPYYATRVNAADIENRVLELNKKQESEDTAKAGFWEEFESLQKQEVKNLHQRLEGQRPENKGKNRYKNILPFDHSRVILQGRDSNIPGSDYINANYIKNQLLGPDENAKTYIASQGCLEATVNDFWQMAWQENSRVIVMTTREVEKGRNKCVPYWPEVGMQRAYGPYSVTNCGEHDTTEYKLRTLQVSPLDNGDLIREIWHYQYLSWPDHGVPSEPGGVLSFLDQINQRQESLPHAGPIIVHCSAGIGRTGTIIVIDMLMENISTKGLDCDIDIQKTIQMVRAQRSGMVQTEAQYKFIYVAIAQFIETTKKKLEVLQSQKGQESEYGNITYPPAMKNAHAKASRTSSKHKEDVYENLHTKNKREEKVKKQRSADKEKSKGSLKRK
pIC50: −log10 of the molar value.

Exercise: Please look at CC1=NN(c2ccc(C)c(C)c2)C(=O)/C1=N\Nc1cccc(-c2cccc(C(=O)O)c2)c1O and tell me its recorded pIC50 on ΔSHP1 (Homo sapiens).
Key: < 3.70

Exercise: Please look at CC1(C)CCC2=C(O1)c1ccccc1C(=O)C2=O and tell me its recorded pIC50 on ΔSHP1 (Homo sapiens).
Key: < 3.70

Exercise: Please look at CCCCCCCCCCCC1=C(O)C(=O)C=C(O)C1=O and tell me its recorded pIC50 on ΔSHP1 (Homo sapiens).
Key: < 3.70

Exercise: Please look at CC1(C)CCC(CN2CCN(c3ccc(C(=O)NS(=O)(=O)c4ccc(NCC5CCOCC5)c([N+](=O)[O-])c4)c(Oc4cnc5[nH]ccc5c4)c3)CC2)=C(c2ccc(Cl)cc2)C1 and tell me its recorded pIC50 on ΔSHP1 (Homo sapiens).
Key: 4.09

---

Test system: NCI-H1975 cells
ASSAY NAME: Cell viability assay (CCK-8)
Type: cell-based
CONDITION NOTES: Homo sapiens, NCI-H1975, 24 h, NCI-H1975, RAS-wild type, EGFR L858R/T790M
MEASURED ENDPOINT: IC50 (µM)
Could you give me the number in µM? Just the number is fine.

Exercise: Dear colleague, please send me the reported IC50 for CCCCCCCCCCCC1=C(O)C(=O)C=C(O)C1=O when you can.
Key: 7.4

---

Tested on: NCI-H1944 cells
ASSAY NAME: Cell viability assay (CCK-8)
Assay type: cell-based
CONDITION NOTES: Homo sapiens; NCI-H1944, KRAS G13D, 24 h; read-out: IC50 at 24 h
MEASURED ENDPOINT: pIC50
Please note pIC50 is a logarithmic value: minus log10 of concentration in mol/L. Answer with that number alone.

Exercise: Dear colleague, please send me the reported pIC50 for CCCCCCCCCCCC1=C(O)C(=O)C=C(O)C1=O [Embelin] when you can.
Key: 4.51

---

System: NCI-H1155 cells
ASSAY NAME: Cell viability assay (CCK-8)
Assay type: cell-based
CONDITION NOTES: Homo sapiens, NCI-H1155, 48 h; read-out: IC50 at 48 h
MEASURED ENDPOINT: IC50 (µM)
Could you give me the number in µM? Just the number is fine.

Exercise: Dear colleague, please send me the reported IC50 for CCCCCCCCCCCC1=C(O)C(=O)C=C(O)C1=O [Embelin] when you can.
Key: 7.07

---

Tested on: MDA-MB-231 cells
ASSAY NAME: Cell viability assay (CCK-8)
Format: cell-based
CONDITION NOTES: Homo sapiens, MDA-MB-231, 48 h; read-out: IC50 at 48 h
MEASURED ENDPOINT: IC50 (µM)
Could you give me the number in µM? Just the number is fine.

Exercise: Dear colleague, please send me the reported IC50 for CCCCCCCCCCCC1=C(O)C(=O)C=C(O)C1=O when you can.
Key: 11.5

---

TEST TARGET: His‐SHP2 (Homo sapiens, UniProt Q06124)
MEASURED ENDPOINT: pKd
Please note pKd is a logarithmic value: minus log10 of concentration in mol/L. Answer with that number alone.

Exercise: Dear colleague, please send me the reported pKd for CCCCCCCCCCCC1=C(O)C(=O)C=C(O)C1=O when you can.
Key: 7.64

---

Tested on: SNU-C2A cells
ASSAY NAME: Cell viability assay (CCK-8)
Type: cell-based
CONDITION NOTES: KRAS G12D, 24 h, read-out: IC50 at 24 h
MEASURED ENDPOINT: IC50 (µM)
Could you give me the number in µM? Just the number is fine.

Exercise: Dear colleague, please send me the reported IC50 for CCCCCCCCCCCC1=C(O)C(=O)C=C(O)C1=O [Embelin] when you can.
Key: 22.4

---

Tested on: SW1417 cells
ASSAY NAME: Cell viability assay (CCK-8)
Format: cell-based
CONDITION NOTES: Homo sapiens; SW1417, RAS-wild type, 24 h; read-out: IC50 at 24 h
Protocol: supplies are listed in Supplementary Table S5. […] KRAS-mutant and wild-type cells are listed in Supplementary Table S7. For the adherent cell viability assay, cells in the logarithmic growth phase were seeded in 96-well culture plates at a density of 5×103 well-1 and incubated overnight. […] Cell viability was determined using CCK-8 or CellLightTM Cell Viability Assay Kit, according to the manufacturer's protocol. […]
MEASURED ENDPOINT: pIC50
Please note pIC50 is a logarithmic value: minus log10 of concentration in mol/L. Answer with that number alone.

Exercise: Please look at CCCCCCCCCCCC1=C(O)C(=O)C=C(O)C1=O and tell me its recorded pIC50 on SW1417 cells.
Key: 4.18
